Reference source: patent US9725518B2

- target-or-test-system: T1, N1 binding to cell surface expressed hJ1 (Homo sapiens, UniProt P78504)
- T1 construct: cell expressed full length human J1 (hJ1; HEK293 transfectants); expressed in transfected cells; host or cells: HEK293
- T1 sequence (P78504 34-1218): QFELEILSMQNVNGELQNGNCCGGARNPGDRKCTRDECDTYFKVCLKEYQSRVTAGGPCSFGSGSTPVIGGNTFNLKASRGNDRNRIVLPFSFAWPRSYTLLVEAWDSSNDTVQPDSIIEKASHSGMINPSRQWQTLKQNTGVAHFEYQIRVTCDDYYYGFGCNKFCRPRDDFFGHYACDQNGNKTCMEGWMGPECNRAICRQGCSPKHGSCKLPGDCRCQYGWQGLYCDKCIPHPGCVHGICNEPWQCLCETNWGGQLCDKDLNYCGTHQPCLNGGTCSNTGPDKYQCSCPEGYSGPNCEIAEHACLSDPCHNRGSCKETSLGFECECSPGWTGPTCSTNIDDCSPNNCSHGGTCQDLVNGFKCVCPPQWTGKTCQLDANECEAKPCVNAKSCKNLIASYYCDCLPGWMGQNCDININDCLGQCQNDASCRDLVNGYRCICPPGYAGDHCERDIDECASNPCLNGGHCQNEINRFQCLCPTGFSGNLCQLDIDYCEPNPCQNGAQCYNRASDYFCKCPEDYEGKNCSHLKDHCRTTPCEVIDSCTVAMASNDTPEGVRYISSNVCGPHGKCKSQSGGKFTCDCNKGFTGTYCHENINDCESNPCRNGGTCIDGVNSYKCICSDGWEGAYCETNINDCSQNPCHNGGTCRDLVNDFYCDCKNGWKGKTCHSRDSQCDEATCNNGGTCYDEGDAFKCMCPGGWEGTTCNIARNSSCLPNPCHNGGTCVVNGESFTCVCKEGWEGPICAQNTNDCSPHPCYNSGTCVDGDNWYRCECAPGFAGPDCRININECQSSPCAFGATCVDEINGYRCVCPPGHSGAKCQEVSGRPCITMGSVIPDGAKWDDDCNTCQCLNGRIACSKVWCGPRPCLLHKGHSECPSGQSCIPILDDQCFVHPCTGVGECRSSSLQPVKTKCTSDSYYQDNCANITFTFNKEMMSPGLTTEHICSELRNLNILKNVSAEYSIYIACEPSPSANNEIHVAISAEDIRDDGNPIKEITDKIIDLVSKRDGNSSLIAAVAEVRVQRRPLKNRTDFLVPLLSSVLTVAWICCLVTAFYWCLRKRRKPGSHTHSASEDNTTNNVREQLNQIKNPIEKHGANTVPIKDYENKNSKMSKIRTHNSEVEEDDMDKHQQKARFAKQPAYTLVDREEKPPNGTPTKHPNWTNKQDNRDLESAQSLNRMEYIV
- assay-procedure: Notch binding blocking assay (FACS): N1 EGF11-13 beads staining human J1-expressing cells
- Parameters: key: +: Complete blocking; X: No blocking
- conditions: final antibody concentration 0.2 μg/ml
experimental-endpoint: Blocking of Notch1 binding to cell surface Jagged 1

Q: I'd like to know its Blocking of Notch1 binding to cell surface Jagged 1. The molecule in question is J1-183D variant 13: humanised/de-immunised J1-183D: J1-183D_VL_4 + J1-183D_VH_1 (antibody, V domains shown) VH: QVQLVQSGAELKKPGASVKVSCKVSGYAFTDYAIHWIRQAPGQGLEWMGIINTYYGDSKYNQKFKDRVTMTVDKSTSTAYMELSSLRSEDTAVYYCARGYDGFAYWGQGTLVTVSSASTKGP VL: DIQMTQSPSSLSASVGDRVTITCRTSENIYSYLTWYQQKPGKAPKLLIYHAKILDSGVPSRFSGSGSGTDFTLTISSLQPEDFATYYCQHHYDIPWTFGGGTKLEIKRT
Ans: X

Q: I'd like to know its Blocking of Notch1 binding to cell surface Jagged 1. The molecule in question is J1-65D variant 9: humanised/de-immunised J1-65D: J1-65D_VL_3 + J1-65D_VH_1 (antibody, V domains shown) VH: QVQLVQSGAELKKPGSSVKVSCKASGYTFTDYEMHWVRQAPGQGLEWMGAIQPGGGGTAYNQKFKGRVTLTADKSTSTAYMELSSLRSEDTAVYYCTRRGYDDYPFAYWGQGTLVTVSSASTKGP VL: DIQMTQSPSSLSASVGDRVTITCRASGNIHNYLAWYQQKPGKAPKLLIYNAKTLADAVPSRFSGSGSGTDYTLTISSLQPEDFATYYCQHFWSAPWTFGQGTKLEIKRT
Ans: X
